Readings of concentration (% of total isomers) 13-Z for the listed compounds
experiment: Stability of pure lycopene isomers in n-hexane during storage at room temperature; format: physicochemical; settings: n-hexane, room temperature, absence of light, 12 days

See these solved cases before continuing.
CC(C)=CCC/C(C)=C/C=C/C(C)=C/C=C/C(C)=C\C=C\C=C(C)\C=C\C=C(C)\C=C\C=C(/C)CCC=C(C)C [13-Z lycopene]
20.8 % of total isomers
CC(C)=CCC/C(C)=C/C=C/C(C)=C/C=C/C(C)=C/C=C/C=C(C)/C=C/C=C(C)/C=C/C=C(\C)CCC=C(C)C [all-E lycopene]
18.2 % of total isomers
CC(C)=CCC/C(C)=C/C=C/C(C)=C\C=C\C(C)=C\C=C\C=C(C)\C=C\C=C(C)\C=C\C=C(/C)CCC=C(C)C [9-Z lycopene]
8.2 % of total isomers

Would you kindly look at the next entry?
Measured concentration (% of total isomers) 13-Z, CC(C)=CCC\C(C)=C/C=C/C(C)=C/C=C/C(C)=C/C=C/C=C(C)/C=C/C=C(C)/C=C/C=C(\C)CCC=C(C)C [5-Z lycopene] : 1.7 % of total isomers
